Would you kindly list pIC50 for each of these molecules?
measured_target: His-tagged human recombinant kinase full-length Akt2 (Homo sapiens (Human))
Sequence (P31751 whole entry): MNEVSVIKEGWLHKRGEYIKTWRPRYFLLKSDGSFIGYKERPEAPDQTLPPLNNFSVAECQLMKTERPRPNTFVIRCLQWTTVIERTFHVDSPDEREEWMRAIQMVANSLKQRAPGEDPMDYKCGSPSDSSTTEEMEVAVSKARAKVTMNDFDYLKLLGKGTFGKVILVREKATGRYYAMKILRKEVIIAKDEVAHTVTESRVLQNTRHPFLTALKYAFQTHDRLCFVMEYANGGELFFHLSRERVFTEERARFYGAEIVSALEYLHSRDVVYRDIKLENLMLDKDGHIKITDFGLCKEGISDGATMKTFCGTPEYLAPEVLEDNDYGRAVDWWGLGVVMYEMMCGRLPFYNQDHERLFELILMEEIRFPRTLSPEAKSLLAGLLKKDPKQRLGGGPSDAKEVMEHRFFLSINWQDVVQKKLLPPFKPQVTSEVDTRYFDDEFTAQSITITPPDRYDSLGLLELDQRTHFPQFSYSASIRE
measurement_description: Akt2 kinase assay (Akt2 TR-FRET assay)
assay_conditions: 10 μM ATP, 60 min at 22° C., read-out: Akt2 median IC50
Answers are plain numbers, as −log10 of the molar value.

Some molecules with known pIC50 results, for comparison:
NC1(c2ccc(-c3nc4ccc(Cl)nn4c3-c3ccccc3)cc2)CCC1 | 7.04
CSc1nn2c(-c3ccccc3)c(-c3ccc(C4(N)CCC4)cc3)nc2c(C)c1C | 7.46
COC(=O)COc1ccc2nc(-c3ccc(C4(N)CCC4)cc3)c(-c3ccccc3)n2n1 | 6.21
COC(=O)c1ccc2nc(-c3ccc(C4(N)CCC4)cc3)c(-c3ccccc3)n2n1 | 6.80
Cc1c(Cl)nn2c(-c3ccccc3)c(-c3ccc(C4(N)CCC4)cc3)nc2c1C | 7.57

For every record below, what is its pIC50?
1. CCc1cc(OC)c2nc(-c3ccc(C4(N)CCC4)cc3)c(-c3ccccc3)n2n1
2. COc1cc(Br)nn2c(-c3ccccc3)c(-c3ccc(C4(N)CCC4)cc3)nc12
3. Nc1ccc2nc(-c3ccc(C4(N)CCC4)cc3)c(-c3ccccc3)n2n1
4. CCOC(=O)c1ccc2nc(-c3ccc(C4(N)CCC4)cc3)c(-c3ccccc3)n2n1
5. COc1cc(-c2cc[nH]n2)c2nc(-c3ccc(C4(N)CCC4)cc3)c(-c3ccccc3)n2n1
6. CC(=O)Nc1ccc2nc(-c3ccc(C4(N)CCC4)cc3)c(-c3ccccc3)n2n1

Reply |
1. 7.38
2. 8.01
3. 5.92
4. 6.72
5. 7.37
6. 6.29

----------
Test system: KPL-4 breast cancer cell line
measurement_description: Tumor cell proliferation assay (CellTiter-Glo), KPL-4
Format: cell-based
assay_conditions: Homo sapiens, KPL4, 72 h drug exposure, read-out: KLP-4 median IC50
Where a name gives a salt, the structure may show the parent alone.
Kindly state pIC50 for each of the entries shown.
Answers are plain numbers, as −log10 of the molar value.

Some compounds with recorded pIC50:
CC(=O)Nc1ccnn2c(-c3ccccc3)c(-c3ccc(C4(N)CCC4)cc3)nc12 [Example 49] | 6.85
CS(=O)(=O)c1ccc2nc(-c3ccc(C4(N)CCC4)cc3)c(-c3ccccc3)n2n1 [Example 38] | 6.13
CCOc1cc(OCC)c2nc(-c3ccc(C4(N)CCC4)cc3)c(-c3ccccc3)n2n1 [Example 76] | 5.77
NC(=O)c1cc(C(N)=O)c2nc(-c3ccc(C4(N)CCC4)cc3)c(-c3ccccc3)n2n1 [Example 34] | 5.96
C=Cc1cc(-c2cc[nH]n2)c2nc(-c3ccc(C4(N)CCC4)cc3)c(-c3ccccc3)n2n1 [Example 20] | 5.59
NC(=O)c1cc(-c2cc[nH]n2)c2nc(-c3ccc(C4(N)CCC4)cc3)c(-c3ccccc3)n2n1 [Example 60] | 5.82
Cc1c(Cl)nn2c(-c3ccccc3)c(-c3ccc(C4(N)CCC4)cc3)nc2c1C [Example 50] | 5.77
CSc1nn2c(-c3ccccc3)c(-c3ccc(C4(N)CCC4)cc3)nc2c(C)c1C [Example 54] | 6.13

Please state, for each entry, its recorded pIC50.
1. CCNC(=O)c1ccc2nc(-c3ccc(C4(N)CCC4)cc3)c(-c3ccccc3)n2n1 [Example 66]
2. NC1(c2ccc(-c3nc4c(OCc5ccccc5)cc(Cl)nn4c3-c3ccccc3)cc2)CCC1 [Example 29]
3. COC(=O)CCc1ccnn2c(-c3ccccc3)c(-c3ccc(C4(N)CCC4)cc3)nc12 [Example 72]
4. Nc1ccnn2c(-c3ccccc3)c(-c3ccc(C4(N)CCC4)cc3)nc12 [Example 48]
5. COc1nn2c(-c3ccccc3)c(-c3ccc(C4(N)CCC4)cc3)nc2c(C)c1C [Example 53]
6. CCOc1cc(C(=O)NC)nn2c(-c3ccccc3)c(-c3ccc(C4(N)CCC4)cc3)nc12 [Example 22]
7. NC1(c2ccc(-c3nc4c(-c5ncc[nH]5)cc(Cl)nn4c3-c3ccccc3)cc2)CCC1 [Example 24]
8. NC1(c2ccc(-c3nc4c(-c5ccc(F)cc5)cc(-c5ccc(F)cc5)nn4c3-c3ccccc3)cc2)CCC1 [Example 42]

Reply |
1: 5.60; 2: 5.70; 3: 5.66; 4: 5.96; 5: 5.77; 6: 6.72; 7: 5.77; 8: 5.55

Report pIC50 for each item below.
1. Nc1ccc2nc(-c3ccc(C4(N)CCC4)cc3)c(-c3ccccc3)n2n1 [Example 35]
2. COc1cc(-c2cn[nH]c2)c2nc(-c3ccc(C4(N)CCC4)cc3)c(-c3ccccc3)n2n1 [Example 15, HCl salt]
3. COc1cc(-c2cccnc2)c2nc(-c3ccc(C4(N)CCC4)cc3)c(-c3ccccc3)n2n1 [Example 14]
4. CCCCOc1cc(OCC)nn2c(-c3ccccc3)c(-c3ccc(C4(N)CCC4)cc3)nc12 [Example 77]
5. COC(=O)c1ccnn2c(-c3ccccc3)c(-c3ccc(C4(N)CCC4)cc3)nc12 [Example 31]
6. CCOC(=O)c1ccc2nc(-c3ccc(C4(N)CCC4)cc3)c(-c3ccccc3)n2n1 [Example 4]

Reply |
1: 5.21; 2: 5.74; 3: 5.72; 4: 5.72; 5: 5.08; 6: 5.62

----------
measured_target: His-tagged human recombinant kinase full-length Akt1 (Homo sapiens (Human))
measurement_description: Akt1 kinase assay (Akt1 TR-FRET assay)
assay_conditions: 10 μM ATP, 60 min at 22° C., read-out: Akt1 median IC50
reported_endpoint: IC50 (nM)
Give bare numbers, in nM.

Answered cases to consult:
COc1cc(-c2cccnc2)c2nc(-c3ccc(C4(N)CCC4)cc3)c(-c3ccccc3)n2n1 [Example 14] | 9.8
COc1cc(C(N)=O)nn2c(-c3ccccc3)c(-c3ccc(C4(N)CCC4)cc3)nc12 [Example 10] | 2.6
CC(=O)c1ccc2nc(-c3ccc(C4(N)CCC4)cc3)c(-c3ccccc3)n2n1 [Example 43] | 36

Next:
# IC50 (molecule: CCOC(=O)c1ccc2nc(-c3ccc(C4(N)CCC4)cc3)c(-c3ccccc3)n2n1 [Example 4] ) is 85

----------
Would you kindly list pIC50 for each of these compounds?
System: MCF-7 breast tumour cell line
measurement_description: Tumor cell proliferation assay (CellTiter-Glo), MCF-7
Type: cell-based
assay_conditions: Homo sapiens, MCF7, 72 h drug exposure, read-out: MCF-7 median IC50
Numbers only, as −log10 of the molar value.

Use the examples below as a reference point.
NC1(c2ccc(-c3nc4ccc(NC(=O)C(F)(F)F)nn4c3-c3ccccc3)cc2)CCC1 | 5.08
NC1(c2ccc(-c3nc4c(-c5cc[nH]n5)cc(C(=O)NCCO)nn4c3-c3ccccc3)cc2)CCC1 | 6.11

Working through the 2 compounds below one at a time, give pIC50 for each.
1. COC(=O)CCc1ccnn2c(-c3ccccc3)c(-c3ccc(C4(N)CCC4)cc3)nc12
2. COc1ccnn2c(-c3ccccc3)c(-c3ccc(C4(N)CCC4)cc3)nc12

Reply |
1: 5.52; 2: 6.33

----------
Exercise: for every item that follows, state its recorded log10 IC50.
Tested on: KPL-4 breast cancer cell line
measurement_description: Tumor cell proliferation assay (CellTiter-Glo), KPL-4
Assay type: cell-based
assay_conditions: Homo sapiens, KPL4, 72 h drug exposure, read-out: KLP-4 median IC50
Give log10 of IC50, with IC50 taken in µM.

Look over these answered cases.
CNC(=O)c1cc(OCC2CC2)c2nc(-c3ccc(C4(N)CCC4)cc3)c(-c3ccccc3)n2n1 | -0.44
NC1(c2ccc(-c3nc4c(-c5cc[nH]n5)ccnn4c3-c3ccccc3)cc2)CCC1 | 0.26
Cn1nccc1-c1cc(Cl)nn2c(-c3ccccc3)c(-c3ccc(C4(N)CCC4)cc3)nc12 | 0.34
CC(=O)c1ccc2nc(-c3ccc(C4(N)CCC4)cc3)c(-c3ccccc3)n2n1 | 0.79
COc1ccc2nc(-c3ccc(C4(N)CCC4)cc3)c(-c3ccccc3)n2n1 | 0.04
COc1cc(C(N)=O)nn2c(-c3ccccc3)c(-c3ccc(C4(N)CCC4)cc3)nc12 | -1.31

Lab note: next compound to report on.
Recorded log10 IC50 (compound COC(=O)c1cc(OC)c2nc(-c3ccc(C4(N)CCC4)cc3)c(-c3ccccc3)n2n1 ): 0.30

----------
measured_target: His-tagged human recombinant kinase full-length Akt1 (Homo sapiens (Human), UniProt P31749)
Sequence (P31749 whole entry): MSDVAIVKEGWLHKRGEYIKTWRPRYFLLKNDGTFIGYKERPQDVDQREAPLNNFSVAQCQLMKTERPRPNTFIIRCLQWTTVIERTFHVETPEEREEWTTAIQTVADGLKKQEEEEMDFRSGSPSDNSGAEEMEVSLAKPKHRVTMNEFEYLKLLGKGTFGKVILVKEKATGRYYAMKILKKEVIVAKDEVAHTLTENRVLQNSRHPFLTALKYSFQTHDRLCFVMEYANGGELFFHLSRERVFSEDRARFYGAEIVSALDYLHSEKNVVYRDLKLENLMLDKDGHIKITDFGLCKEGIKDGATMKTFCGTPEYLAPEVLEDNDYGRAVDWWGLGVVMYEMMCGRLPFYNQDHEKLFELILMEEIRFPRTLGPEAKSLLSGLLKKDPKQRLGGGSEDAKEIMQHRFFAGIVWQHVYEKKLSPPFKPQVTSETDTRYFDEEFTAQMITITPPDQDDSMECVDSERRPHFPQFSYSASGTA
measurement_description: Akt1 kinase assay (Akt1 TR-FRET assay)
assay_conditions: 10 μM ATP, 60 min at 22° C., read-out: Akt1 median IC50
Where a name gives a salt, the structure may show the parent alone.
reported_endpoint: IC50 (nM)
Answers are plain numbers, in nM.

COc1cc(-c2cc[nH]n2)c2nc(-c3ccc(C4(N)CCC4)cc3)c(-c3ccccc3)n2n1 [Example 73] | 4.3

Give one value of IC50 per listed molecule.
1. CNC(=O)c1cc(-c2ncc[nH]2)c2nc(-c3ccc(C4(N)CCC4)cc3)c(-c3ccccc3)n2n1 [Example 62]
2. NC1(c2ccc(-c3nc4c(-c5ccc(F)cc5)cc(-c5ccc(F)cc5)nn4c3-c3ccccc3)cc2)CCC1 [Example 42]
3. NC1(c2ccc(-c3nc4c(-c5ncc[nH]5)cc(Cl)nn4c3-c3ccccc3)cc2)CCC1 [Example 24]
4. CSc1nn2c(-c3ccccc3)c(-c3ccc(C4(N)CCC4)cc3)nc2c(C)c1C [Example 54]
5. NC1(c2ccc(-c3nc4cccnn4c3-c3ccccc3)cc2)CCC1 [Example 25]
6. COc1ccc2nc(-c3ccc(C4(N)CCC4)cc3)c(-c3ccccc3)n2n1 [Example 6]

Reply |
1. 16
2. 20000
3. 35
4. 12
5. 190
6. 4.2

# batch: return IC50 for each of the 6 molecules below
1. COc1cc(-c2cn[nH]c2)c2nc(-c3ccc(C4(N)CCC4)cc3)c(-c3ccccc3)n2n1 [Example 15, HCl salt]
2. CN(C)C(=O)c1ccc2nc(-c3ccc(C4(N)CCC4)cc3)c(-c3ccccc3)n2n1 [Example 69]
3. COc1cc(-c2ccncc2)c2nc(-c3ccc(C4(N)CCC4)cc3)c(-c3ccccc3)n2n1 [Example 75]
4. NC1(c2ccc(-c3nc4c(-c5cc[nH]n5)cc(Cl)nn4c3-c3ccccc3)cc2)CCC1 [Example 19]
5. NC(=O)c1cc(-c2cc[nH]n2)c2nc(-c3ccc(C4(N)CCC4)cc3)c(-c3ccccc3)n2n1 [Example 60]
6. COc1cc(-c2ccnn2C)c2nc(-c3ccc(C4(N)CCC4)cc3)c(-c3ccccc3)n2n1 [Example 74]

Reply |
1: 4.4; 2: 310; 3: 21; 4: 15; 5: 7.2; 6: 96

Report IC50 for every entry below.
1. CC(=O)Nc1ccnn2c(-c3ccccc3)c(-c3ccc(C4(N)CCC4)cc3)nc12 [Example 49]
2. CS(=O)(=O)Nc1ccc2nc(-c3ccc(C4(N)CCC4)cc3)c(-c3ccccc3)n2n1 [Example 45]
3. COC(=O)c1ccc2nc(-c3ccc(C4(N)CCC4)cc3)c(-c3ccccc3)n2n1 [Example 39]

Reply |
1. 68
2. 1200
3. 38

Item: COC(=O)COc1ccc2nc(-c3ccc(C4(N)CCC4)cc3)c(-c3ccccc3)n2n1 [Example 80] | IC50: 96
